- System: TK-10 renal
- experiment.notes: NCI-60 one-dose screen, 48 h
- condition.details: 10 µM unless noted
This is part of a sample that, as a whole, favours compounds with a hit. Of some 83,000 tested, about 20% had one in any assay. Activity calls are given as the source filed them. Rule for the calls: active = growth percent below 10; inactive = the rest.
Classes used: active, inactive

1. CNC1=C([N+](=O)[O-])C(c2ccccc2O)C(C#N)=C(c2cccs2)O1 (stereo not given)
inactive
2. CC(C)(CCc1ccccn1)C(=O)CCCc1ccccn1
inactive
3. NC(=S)N1N=C(c2ccc(Cl)cc2)CC1c1cc2ccccc2[nH]c1=O (stereo not given)
inactive
4. Cc1ccccc1C1CC(=O)c2ccccc2C1C (stereo not given)
inactive
5. COC(=O)C(Br)(C(=O)OC)C(Br)C(Br)C(Br)c1ccccc1 (stereo not given)
active
6. CCCCCN(CCCCC)C(=O)C(CCC(=O)O)NC(=O)c1ccc(Cl)c(Cl)c1 (stereo not given)
inactive
7. Cc1ccc(NC(=O)c2sc3nc4c(cc3c2N)C(=O)CCC4)cc1Cl
inactive
8. O=C1N(Cc2ccccc2Cl)c2ccccc2C12NN=C(c1ccccc1)S2 (stereo not given)
inactive
9. COc1cc(-c2nc(-c3ccc(-c4nc5ccc(F)cc5[nH]4)cc3)no2)cc(OC)c1OC
inactive
10. CCS(=O)(=O)Nc1cccc(Nc2c3cccc(C)c3nc3c(C)cccc23)c1OC
inactive
11. COc1ccc2nc3ccccc3c(NCc3ccc(Cl)cc3)c2c1
inactive
12. CN1CCC2(CC1)N=C(SCC(=O)Nc1cnc3ccccc3c1)C(c1ccc(Br)cc1)=N2
inactive
13. O=c1c2cc(Br)cc(Br)c2nc(-c2ccc(Cl)cc2)n1/N=C/c1cccc(F)c1
inactive
14. COc1ccc([C@H]2c3[nH]c4ccccc4c3C[C@H]3C(=O)N(CCCCCCC(=O)NO)CC(=O)N23)cc1
inactive
15. Oc1ccccc1-c1nnc(COc2ccc(Cl)cc2Cl)o1
inactive
16. CC(C)CCC(=O)[C@@H](C)[C@H]1[C@@H](OC2OCC(O)C(O)C2NS(C)(=O)=O)C[C@H]2[C@@H]3CC=C4C[C@@H](O)CC[C@]4(C)[C@H]3CC[C@]12C (stereo not given in full)
inactive
17. Cc1ccc(Nc2cccc3ccccc23)cc1
inactive
18. COc1ccccc1CNCCCN1C(=O)c2ccc3c4c(ccc(c24)C1=O)C(=O)N(CCCNCCCN)C3=O
inactive
19. CCCCCCCCCCCCC1CCC(=O)O1 (stereo not given)
inactive
20. Nc1nc(NC2CC2)cc(-c2cccc(Cl)c2Cl)n1
inactive
21. CN(C)CCNC(=O)n1cc(-c2ccncc2)c(-c2cc(O)cc(Cl)c2)n1
inactive
22. CC1(C)OC2OC3C(CN)OC(c4ccccc4)OC3C2O1 (stereo not given)
inactive
23. COc1ccc(C2=NNC(c3ccc(Oc4nc5c(c(=O)n(C)c(=O)n5C)n4C)c(OC)c3)C2)cc1 (stereo not given)
inactive
24. O=S1(=O)NCCN1CCNc1nccc(-c2c(-c3cccc(O)c3)nc3sccn23)n1
inactive
25. CCN(CC)CCNC(=O)n1cc(-c2ccncc2)c(-c2cc(Cl)cc(OC)c2)n1
inactive
26. O=C1/C(=C/c2cc(F)cc(F)c2)Cc2cc(F)cc(F)c21
inactive
27. COc1cnc2c(c1)C(=O)c1c-2n(CCCN2CCNCC2)c(=O)c2cc(Cl)ccc12
inactive
28. Cc1cc(-c2ccccc2)on1
inactive
29. Cc1cccc(N=NC(=S)NNc2cccc(C)c2)c1
inactive
30. Cc1cc(-c2ccc(N=Nc3c(S(=O)(=O)O)cc4cc(S(=O)(=O)O)cc(O)c4c3O)c(C)c2)ccc1N=Nc1c(S(=O)(=O)O)cc2cc(S(=O)(=O)O)cc(O)c2c1O
inactive
31. CCSCC1CC(O)(c2ccccc2)C(c2ccccc2)C(c2ccc(F)cc2)O1 (stereo not given)
active
32. O=S(=O)(Cc1ccc(Cl)cc1Cl)c1ccc(Cl)cc1
inactive
33. COc1ccc(C(=O)OC2C(OC3C(O)COC(O[C@H]4C[C@H]5[C@@H]6CC=C7C[C@@H](O)CC[C@]7(C)[C@H]6CC[C@]5(C)[C@H]4[C@H](C)C(=O)CCC(C)C)C3OC(N)=O)OCC(O)C2O)cc1 (stereo not given in full)
active
34. Cc1ccccc1NC(=O)c1sc2nc3c(cc2c1N)C(=O)CCC3
inactive
35. NS(=O)(=O)c1ccc(CCn2c(SCC(=O)N/N=C/c3cccnc3)nc3ccccc3c2=O)cc1
inactive
36. COc1ccc(-c2nn(C(=O)NCCN(C)C)cc2-c2ccncc2)cc1Cl
inactive
37. Clc1ccc(-c2cnc3nonc3n2)s1
inactive
38. CC(=O)Nc1ccc(/C=N/N2CCCCCC2)cc1
inactive
39. N/C(=N\O)c1ncc(-c2ccc(C(F)(F)F)cc2)c(NC2CCCCCC2)n1
active
40. Clc1ccc(C2=NN[C@H](c3cn(-c4ccccc4)nc3-c3ccccc3)C2)cc1
inactive
